Biological target: T1, soluble KDR extracellular domain (ECD) (Calbiochem) (human, UniProt P35968 20-764)
T1 construct: extracellular domain; Bought protein; also called KDR-ECD; VEGF Receptor 2 D1-7, Cat. #676490
T1 sequence (P35968 20-764): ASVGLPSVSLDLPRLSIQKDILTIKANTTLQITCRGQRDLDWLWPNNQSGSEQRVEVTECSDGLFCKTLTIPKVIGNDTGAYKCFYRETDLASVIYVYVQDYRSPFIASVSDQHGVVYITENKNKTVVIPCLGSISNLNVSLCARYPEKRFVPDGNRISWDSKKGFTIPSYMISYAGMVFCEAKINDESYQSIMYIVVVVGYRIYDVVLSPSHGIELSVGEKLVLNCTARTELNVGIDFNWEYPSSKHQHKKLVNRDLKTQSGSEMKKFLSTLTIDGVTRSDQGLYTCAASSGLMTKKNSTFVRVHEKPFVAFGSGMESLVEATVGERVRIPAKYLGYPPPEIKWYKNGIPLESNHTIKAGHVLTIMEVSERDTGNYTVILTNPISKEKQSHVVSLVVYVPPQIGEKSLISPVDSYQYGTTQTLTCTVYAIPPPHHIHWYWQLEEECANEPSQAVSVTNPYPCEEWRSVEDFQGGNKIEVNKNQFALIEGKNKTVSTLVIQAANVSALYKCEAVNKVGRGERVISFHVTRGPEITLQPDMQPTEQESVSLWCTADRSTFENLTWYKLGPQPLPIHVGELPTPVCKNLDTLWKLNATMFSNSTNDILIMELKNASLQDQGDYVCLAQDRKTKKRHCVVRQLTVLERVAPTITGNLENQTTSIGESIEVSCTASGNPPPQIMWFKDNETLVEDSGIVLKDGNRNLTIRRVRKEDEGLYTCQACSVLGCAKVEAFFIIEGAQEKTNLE
Assay: High Antigen ELISA, KDR coat 500 ng/mL, supernatant 1:2025

| binder | ELISA reading |
| --- | --- |
| 30D7 (antibody, V domains shown, Fully human mAb from XenoMouse hybridoma, tested as hybridoma supernatant) VH: QVPLVESGGGVVQPGRSLRLSCAASGFTFSSYGMHWVRQAPGKGLEWVAVIWYDGSNKYYADSVKGRFTISRDNSKNTLYLQMNSLRAEDTAVYYCARGVTMVRGVIIARYYYGLDVWGQGTTVTVSS VL: DIVMTQTPLSSPVTLGQPASISCRSSQSLVHSDGNTYLSWLQQRPGQPPRLLIYKISNRFFGVPDRFSGSGAGTDFTLKIGRVEAEDVGLYYCMQSTQFPLTFGGGTKVEIK | 2.79 |
| 1G6 (antibody, V domains shown, Fully human mAb from XenoMouse hybridoma, tested as hybridoma supernatant) VH: EVQLLESGGGLVQPGGSLRLSCAASGFTFSSYAMSWVRQAPGKGLEWVSAISGGGGNTYYADSVKGRFTISRDNSKNTLYLQMNSLRAEDTAVYYCSKVATDYWGQGTLVTVSS VL: QPVLTQSSSASASLGSSVKLTCTLSSGHSSYIIAWHQQQPGKAPRYLMKLEGSGSYNKGSGVPDRFSGSSSGADRYLTISNLQFEDEADYYCETWDSYTVVFGGGTKLTVL | 0.69 |
| 29F7 (antibody, V domains shown, Fully human mAb from XenoMouse hybridoma, tested as hybridoma supernatant) VH: QVQLVQSGAEVKKPGASVKVSCKASGYTFTSYDINWVRQATGQGLEWMGWMNPNSGKTGYAQKFQGRVTMTRSTSISTAYMELSSLRSEDTAVYYCARGGYSNLGWFDPWGQGTLVTVSS VL: DIQMTQSPSSVFASVGDRVTITCRASQGISTWLAWYQQKPGKAPKFLIYAASSLQSGVPSRFSGSGSGTDFTLTISSLQPDDFATYYCQQANNFPFTFGPGTKVDIK | 1.68 |
| 22B8 (antibody, V domains shown, Fully human mAb from XenoMouse hybridoma, tested as hybridoma supernatant) VH: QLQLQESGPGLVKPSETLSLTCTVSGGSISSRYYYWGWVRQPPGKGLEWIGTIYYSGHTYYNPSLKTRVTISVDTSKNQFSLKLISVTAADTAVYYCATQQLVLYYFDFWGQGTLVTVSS VL: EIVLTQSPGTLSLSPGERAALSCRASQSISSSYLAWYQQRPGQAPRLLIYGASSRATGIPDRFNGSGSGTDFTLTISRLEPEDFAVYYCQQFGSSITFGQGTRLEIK | 1.27 |
| 33D5 (antibody, V domains shown, Fully human mAb from XenoMouse hybridoma, tested as hybridoma supernatant) VH: QVQLVQSGAEVKKPGASVKVSCKASGYTFGSYDINWVRQATGQGLEWMGWMNPNSGNTGYAQKFQGRVTLTRNTSIRTVYMELSSLRSEDTAVYYCARGGYSNLGWFDPWGQGSLVTVSS VL: DIQMTQSPSSVSVSVGDRVTITCRASQGISSWLAWYQQKPGKAPKLLIYAASSLQSGVPSRFSGSGSGTDFTLTISSLQPEDFATYYCQQANSFPFTFGPGTKVDIK | 3.65 |
| 30A1 (antibody, V domains shown, Fully human mAb from XenoMouse hybridoma, tested as hybridoma supernatant) VH: QLQLQESGPGLVKPSETLSLTCTVSGGSISSPNYYWGWIRQPPGKGLEWIGTIYYSGNTFYNPSLKSRVTISVDTSKNQFSLKLSSVTAADTAVYYCATQQLVLYYFDFWGQGTLVTVSS VL: EIVLTQSPGTLSLSPGKRAALSCRASQSISSSYLAWYQQKPGQAPRLLIYGASSRATGIPDRFNGSGSGTDFTLTISRLEPEDFAVYYCQQLGSSITFGQGTRLEIK | 3.37 |
| 33E1 (antibody, V domains shown, Fully human mAb from XenoMouse hybridoma, tested as hybridoma supernatant) VH: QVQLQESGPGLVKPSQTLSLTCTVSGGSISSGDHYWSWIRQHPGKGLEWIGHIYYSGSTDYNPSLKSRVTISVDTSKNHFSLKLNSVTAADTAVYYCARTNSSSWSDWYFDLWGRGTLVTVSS VL: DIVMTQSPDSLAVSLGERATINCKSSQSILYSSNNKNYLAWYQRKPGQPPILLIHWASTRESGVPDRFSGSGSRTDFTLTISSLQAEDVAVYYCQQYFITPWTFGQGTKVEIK | 2.09 |
| 24C9 (antibody, V domains shown, Fully human mAb from XenoMouse hybridoma, tested as hybridoma supernatant) VH: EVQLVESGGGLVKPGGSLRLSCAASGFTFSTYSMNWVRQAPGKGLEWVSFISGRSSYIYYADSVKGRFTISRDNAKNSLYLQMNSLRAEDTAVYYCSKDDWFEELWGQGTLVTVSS VL: DIQMTQSPSSLSASVGDRVTITCRASQGIRNDLGWYQQKPGKAPKRLIYATFSLQSGVPSRFSGSGSGTEFTLTISSLQPEDFATYYCLQHNRYPWTFGQGTKVEIK | 0.54 |
| 33B1 (antibody, V domains shown, Fully human mAb from XenoMouse hybridoma, tested as hybridoma supernatant) VH: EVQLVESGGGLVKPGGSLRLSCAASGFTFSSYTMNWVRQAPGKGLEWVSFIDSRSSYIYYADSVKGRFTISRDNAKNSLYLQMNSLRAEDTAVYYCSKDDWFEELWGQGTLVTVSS VL: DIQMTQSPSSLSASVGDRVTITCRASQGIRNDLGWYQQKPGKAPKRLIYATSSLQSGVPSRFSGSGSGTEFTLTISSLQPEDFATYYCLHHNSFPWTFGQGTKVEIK | 0.55 |
| 24B3 (antibody, V domains shown, Fully human mAb from XenoMouse hybridoma, tested as hybridoma supernatant) VH: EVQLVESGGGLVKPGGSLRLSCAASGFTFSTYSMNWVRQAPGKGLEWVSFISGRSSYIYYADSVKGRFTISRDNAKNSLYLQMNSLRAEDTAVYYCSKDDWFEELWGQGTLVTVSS VL: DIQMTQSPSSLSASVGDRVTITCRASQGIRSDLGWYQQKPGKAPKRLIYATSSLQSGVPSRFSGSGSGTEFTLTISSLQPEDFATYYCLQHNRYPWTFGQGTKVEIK | 0.31 |
